test: chemical genetic growth profiling, strain panel (AID 1159580);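 note: tested at 20 µM; growth read once vehicle control cultures reached saturation at 30 °C; 1 = growth at the plate median or of vehicle wells; lower values mean less growth of the strain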; conditions: S. cerevisiae deletion strains, growth OD, locus YBR279W, strain paf1, active compounds read low
In all, about 5,500 compounds went through this assay and about 2,000 (36%) were called active. About 18% were inconclusive and are not listed. Some of the results follow.
normalized growth values, listed per item
// return just the number, without any unit appended

C/C=C(/C(=C/C)c1ccc(O)cc1)c1ccc(O)cc1; 0.971
CO[C@H]1C[C@H](O[C@H]2[C@H](C)[C@@H](OC3O[C@H](C)C[C@H](N(C)C)[C@H]3O)[C@@H](C)C[C@]3(CO3)C(=O)[C@H](C)[C@@H](O)[C@@H](C)[C@@H](C)OC(=O)[C@@H]2C)O[C@@H](C)[C@@H]1O (stereo partly specified); 1.01
CCc1nc(N)nc(N)c1-c1ccc(Cl)cc1; 0.994
OC(CCN1CCCCC1)(c1ccccc1)c1ccccc1; 0.995
CCN(CC)C(=S)SSC(=S)N(CC)CC; 0.063
CC(=O)[C@H]1CCC2C3C[C@H](C)C4=CC(=O)CC[C@]4(C)C3[C@@H](O)C[C@@]21C (stereo partly specified); 0.99

input: For the compound CN=C(NC#N)NCCSCc1nc(N=C(N)N)cs1 , what normalized growth is on record?
output: 0.99

input: For the compound Cn1cc[nH]c1=S , what normalized growth is on record?
output: 0.974

input: For the compound CC(C)N(C(=O)CCl)c1ccccc1 , what normalized growth is on record?
output: 0.993

input: For the compound CCCCOc1ccc(OCCCN2CCOCC2)cc1 , what normalized growth is on record?
output: 0.918

input: For the compound Cc1ccc(O)cc1 , what normalized growth is on record?
output: 1.02

The measured values listed here are drawn from PubChem BioAssay AID1159580.
